# Tested on: Firefly luciferase modified at K529
# METHOD_SUMMARY: Dual luciferase reporter (DLR) assay in E. coli whole cell lysates
# Format: cell-based
# ASSAY_CONTEXT: BocK at K529; normalized to Renilla luciferase, relative to wild-type CobB
MEASUREMENT_LABEL: DLR activity [rel. to wild-type], BocK

Identify the reported DLR activity [rel. to wild-type], BocK for the following entry. Dealocase-2: E. coli CobB mutant A37G R56G I92V (protein, Dealocase-2, E. coli CobB mutant A37G R56G I92V) KPRVLVLTGAGISAESGIRTFRAADGLWEEHRVEDVGTPEGFDRDPELVQAFYNAGRRQLQQPEIQPNAAHLALAKLQDALGDRFLLVTQNVDNLHERAGNTNVIHMHGELLKVRCSQSGQVLDWTGDVTPEDKCHCCQFPAPLRPHVVWFGEMPLGMDEIYMALSMADIFIAIGTSGHVYPAAGFVHEAKLHGAHTVELNLEPSQVGNEFAEKYYGPASQVVPEFVEKLLKGLKAGSIA
0.77 rel. to wild-type

Source of measurements: patent US20200240995A1
